testProtocol: counter assay for TAg ATPase ADP read-out – biochemical, ADP-Hunter, fluorescence, counter-screen (AID 2501);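 note: purified T antigen ATPase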
protocolConditions: series mostly up to 100 µM
Screen size: about 2,200 compounds; about 1,200 (55%) were called active. No cut-off is given here; in the data, nearly all actives have IC50 up to about 92 µM. So high a share suggests a set chosen from earlier hits. The list shows a part of the results.
Possible outcomes: yes (1) for active, no (0) for inactive

INSERT INTO assay_data (querysmiles, labelclass) VALUES
  ('COc1ccc2nc(COC(=O)c3cccs3)c(C(C)=O)[n+]([O-])c2c1', 'no (0)'),
  ('CN=c1scc(C)n1/N=C/c1ccc(O)cc1O', 'yes (1)'),
  ('Cc1nc2ccc(NC(=O)c3cc([N+](=O)[O-])cc([N+](=O)[O-])c3Cl)cc2s1', 'no (0)'),
  ('CCN(CC)c1ccc(NC(=O)COC(=O)c2ccc3ccccc3n2)cc1', 'yes (1)'),
  ('Oc1ccc(-c2[nH]ncc2-c2cccc3cccnc23)c(O)c1', 'yes (1)'),
  ('CC(=O)Nc1cccc(C(=O)OCC(=O)Nc2nnc(-c3ccccc3)o2)c1', 'no (0)');
